The reported measurements were obtained from the RNAGym collection of RNA variant scans (doi:10.7554/elife.90254).

B1: OR4K15 (parent)
chain: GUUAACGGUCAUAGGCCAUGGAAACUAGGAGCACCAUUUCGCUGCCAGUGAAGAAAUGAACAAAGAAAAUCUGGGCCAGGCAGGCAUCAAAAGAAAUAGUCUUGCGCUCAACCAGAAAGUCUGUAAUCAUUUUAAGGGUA

# Variants of: B1
# Procedure Summary: self-cleavage, relative activity (ratio to wild type); higher = more cleavage; in vitro, sequencing; the parent is a self-cleaving ribozyme
Label Fulfilled when self-cleavage is at or above 0.9; otherwise label Not fulfilled.

Here's what some known entries look like.
>  <Sequence Entry>
GAUAACGGUCAUAGGCCAUGGAAACUAGGAGCACCAUUUCGCUGCCAGUGAAGAAAUGAACAAAGAAAAUCUGGGCCAGGCAGGCAUCAAAAGAAAUGGUCUUGCGCUCAACCAGAAAGUCUGUAAUCAUUUUAAGGGUA [U2A A98G]

>  <Qualitative Label>
Not fulfilled

$$$$
>  <Sequence Entry>
GUAAACGGUCAUAGGCCAUGGAAACUAGGGGCACCAUUUCGCUGCCAGUGAAGAAAUGAACAAAGAAAAUCUGGGCCAGGCAGGCAUCAAAAGAAAUAGUCUUGCGCUCAACCAGAAAGUCUGUAAUCAUUUUAAGGGUA [U3A A30G]

>  <Qualitative Label>
Not fulfilled

$$$$
>  <Sequence Entry>
GUUAACGGUCAUAGGCCAUGGAAACUAGGAGCACCAUCUCGCUGCCAGUGAAGAAAUGAACAAAGAAAAUCUGGGCCAGGCAGGCAUCAAAAGAAAUAGUCUUGCGCUCAACCAGAAAGUCUGUAAUCAUCUUAAGGGUA [U38C U131C]

>  <Qualitative Label>
Fulfilled

$$$$
>  <Sequence Entry>
GUUAACGGUCAUAGGCCAUGGAAACUAGGAGCACCAUUUCGCUGCCAGUGAAGAAAUGAACAAAGAAAAUCUGGGCCAGGCAGGCAUCAAAAGAAAUAGUCUUGCGCUCAACCAGAAAGUCUAUAGUCAUUUUAAGGGUA [G123A A126G]

>  <Qualitative Label>
Fulfilled

$$$$
>  <Sequence Entry>
GUUAACGGCCAUAGGCCAUGGAAACUAGGAGCACCAUUUCGCUGCCAGUGAAGAAAUGAACAAAGAAAAUCUGGGCCAGGCAGGCAUCAAAAGAAAUAGUCUUGCGCUCAACCAGAAAGUCUGUAAACAUUUUAAGGGUA [U9C U127A]

>  <Qualitative Label>
Fulfilled

$$$$
>  <Sequence Entry>
GUUAACGGUCAUAGGCCAUGGAAACUAGGAGCACCAUUUCGCUGCCAGUGAAGAAAUGAACAAUGAAAAUCUGGGCCAGGCAGGCAUCAAAAGAAAUAGUCUUGCGCUCAACCAGAAAGGCUGUAAUCAUUUUAAGGGUA [A64U U120G]

>  <Qualitative Label>
Fulfilled

$$$$
>  <Sequence Entry>
GUUAACGGUCAUAGGCCAUGGAAACUGGGAGCACCAUUUCGCUGCCAGUGAAGAAAUGAACAAAGAAAAUCUGGGCCAGGCAGGCAUCAAAAGAAAUAGUCAUGCGCUCAACCAGAAAGUCUGUAAUCAUUUUAAGGGUA [A27G U102A]

>  <Qualitative Label>
Not fulfilled

$$$$
>  <Sequence Entry>
GUUAACGGUCAUAGGCCAUGGUGACUAGGAGCACCAUUUCGCUGCCAGUGAAGAAAUGAACAAAGAAAAUCUGGGCCAGGCAGGCAUCAAAAGAAAUAGUCUUGCGCUCAACCAGAAAGUCUGUAAUCAUUUUAAGGGUA [A22U A23G]

>  <Qualitative Label>
Fulfilled

$$$$
>  <Sequence Entry>
GUUAACGGUCAUAGGCCACGGAAACUAGGGGCACCAUUUCGCUGCCAGUGAAGAAAUGAACAAAGAAAAUCUGGGCCAGGCAGGCAUCAAAAGAAAUAGUCUUGCGCUCAACCAGAAAGUCUGUAAUCAUUUUAAGGGUA [U19C A30G]

>  <Qualitative Label>
Fulfilled

$$$$
>  <Sequence Entry>
GUUAACGGUCAUAGGCCAUGGAAACUAGGAGCACCAUUUCGCUGCCAGUGAAGAUAUGAACAAAGAAAAUCUGGGCCAGGCAGGCAUCAAAAGAAAUAGUCUUGCGCUCAACCAGAAAGUCUGUAAUCAUUUAAAGGGUA [A55U U133A]

>  <Qualitative Label>
Fulfilled

$$$$

Quick check, self-cleavage >= 0.9? GUUAACGGUCAUAGGCCAUGGAAACUAGGAGCACCAUUUCGCUGCCAGUGAAGAAAUGAACAAAGAAAAUCUGGGCCAGGCAGGCAUCAAAAGAAAUAGUCUUGCGCCCAACCAGAAAGUCUGUAAUCAUUUUCAGGGUA [U108C A134C] Not fulfilled
